Biological target: pooled human IgG (human IgG1,2,3 and 4)
endpointName: Enzyme Activity Endpoint Assay: IgG (ng/µL)
The reply should contain only the number, in ng/µL.

[Q] Find the recorded Enzyme Activity Endpoint Assay: IgG belonging to PRT-86 (protein) MANQEIRYSEEDPKHVTSVWTKGVTPPTDFTQGEDVLHAPYIANQGWYDITKTFNGKDDLLCGAATAGNMLHWWFDQNKEEIENYLKKHPEKQKIMFGDQELLDVRKVINTKDSQTNSKLFNYFREKAFPNLSARRLGVMPDLVLDMFINGYYLNVTKTQTTDVNRTYQTKDKRGGIFDAVFTRGDQTKLLTNRHDFKEKTLNEISDLIKQELQEGKALGLSHTYANVRINHVINLWGADFDSNGNLEAIYVTDSDANASIGMKKYFVGKNSAGKVAISAKEIKDDNIGAQVLGLFTLSTGQDIWNQTN and report it.
[A] 45
